Target: Human immunodeficiency virus type 1 protease (Human immunodeficiency virus 1) (UniProt Q72874)
Assay: Percent inhibition of human immunodeficiency virus-1 protease after 1 uM treatment
The threshold is inclusive: inhibition of exactly 20% counts as y; values below receive n.

1) CCC(C)[C@@H](NC(=O)[C@@H](NC(=O)CCCCCCCCCCCCCCC(=O)N[C@H](CC(=O)N[C@@H](Cc1ccccc1)C(=O)O)C(N)=O)C(C)O)C(=O)NC(CC1CC1)C(N)=O (stereo not given in full) = y
2) CC[C@H](C)[C@@H](NC(=O)C(CC1CC1)NC(=O)CCCCCCCCCCCCCCC(=O)N[C@H](CC(=O)N[C@@H](Cc1ccccc1)C(=O)O)C(N)=O)C(=O)N[C@@H](Cc1ccccc1)C(N)=O (stereo not given in full) = y
3) CCC(C)[C@H](NC(=O)CCCCCCCCCCCCCCC(=O)N[C@@H](CC(N)=O)C(=O)NC(Cc1ccc(O)cc1)C(=O)O)C(=O)N[C@H](Cc1ccccc1)C(N)=O (stereo not given in full) = n
4) CCC(C)[C@@H](NC(=O)[C@@H](NC(=O)CCCCCCCCCCCCCCC(=O)N[C@H](CC(=O)N[C@@H](Cc1ccccc1)C(=O)O)C(N)=O)C(C)O)C(=O)Nc1ccc(C(N)=O)cc1 (stereo not given in full) = y

Please find the next compound below.
inhibition >= 20% for `CC[C@H](C)[C@@H](NC(=O)CCCCNC(=O)CCCCCCCCCCCCCCC(=O)N[C@H](CC(=O)N[C@@H](Cc1ccccc1)C(=O)O)C(N)=O)C(=O)N[C@@H](Cc1ccccc1)C(N)=O` ?
n

---

Molecular target: Human immunodeficiency virus type 1 protease (Human immunodeficiency virus 1, UniProt Q72874)
Values of Ki strictly less than 3000 nM map to 1 (yes), and values of at least 3000 nM map to 0 (no).

1) CC[C@H](C)[C@@H](NC(=O)[C@H]([C@H](C)O)N(C)C(=O)CCCCCCCCCCCCCCC(=O)N[C@@H](C(=O)N[C@@H](Cc1ccccc1)C(=O)O)C(C)C)C(=O)NC(CO)C(N)=O (stereo not given in full) = 1 (yes)
2) CCC(C)[C@H](NC(=O)CCCCCCCCCCCCCCC(=O)N[C@@H](CC(N)=O)C(=O)N[C@@H](Cc1ccc(C(=O)c2ccccc2)cc1)C(=O)O)C(=O)N[C@H](Cc1ccccc1)C(N)=O (stereo not given in full) = 1 (yes)
3) CC[C@H](C)[C@@H](NC(=O)[C@@H](NC(=O)CCCCCCCCCCCCCCC(=O)N[C@H](CC(=O)N[C@@H](Cc1ccccc1)C(=O)O)C(N)=O)[C@H](C)O)C(=O)N[C@@H](Cc1ccccc1)C(=O)N[C@@H](Cc1ccccc1)C(N)=O = 1 (yes)
4) CCC(C)[C@@H](NC(=O)C(CCC(C)C)NC(=O)CCCCCCCCCCCCCCC(=O)N[C@H](CC(=O)N[C@@H](Cc1ccccc1)C(=O)O)C(N)=O)C(=O)N[C@@H](Cc1ccccc1)C(N)=O (stereo not given in full) = 0 (no)
5) CC[C@H](C)[C@@H](NC(=O)[C@H]([C@H](C)O)N(C)C(=O)CCCCCCCCCCCCCCC(=O)N[C@H](Cc1ccccc1)C(=O)N[C@@H](Cc1ccccc1)C(=O)O)C(=O)NC(CO)C(N)=O (stereo not given in full) = 1 (yes)
6) CC[C@H](C)[C@@H](NC(=O)[C@H]([C@H](C)O)N(C)C(=O)CCCCCCCCCCCCCCC(=O)Nc1ccccc1C(=O)N[C@@H](Cc1ccccc1)C(=O)O)C(=O)NC(CO)C(N)=O (stereo not given in full) = 0 (no)
7) CC[C@H](C)[C@@H](NC(=O)CCCCCCCCCCCCCCC(=O)N(C)[C@H](C(=O)N[C@@H](C(=O)NC(CO)C(N)=O)[C@@H](C)CC)[C@H](C)O)C(=O)N[C@@H](Cc1ccccc1)C(=O)O (stereo not given in full) = 0 (no)
8) CCC(C)[C@H](NC(=O)CCCCCCCCCCCCCCC(=O)N[C@@H](CC(N)=O)C(=O)NC(Cc1ccc2ccccc2c1)C(=O)O)C(=O)N[C@H](Cc1ccccc1)C(N)=O (stereo not given in full) = 1 (yes)

Please find the next molecule below.
Check if Ki falls below 3000 nM for CC[C@H](C)[C@@H](NC(=O)[C@@H](NC(=O)CCCCCCCCCCCCCCC(=O)N[C@H](CC(=O)N[C@@H](Cc1ccccc1)C(=O)O)C(N)=O)[C@H](C)O)C(=O)NC(Cc1ccc([N+](=O)[O-])c(O)c1)C(N)=O (stereo not given in full) .
1 (yes)

Reference source: ChEMBL document CHEMBL1143555
